# TESTED_SYSTEM: Calcium sensing receptor (hCaSR) (Homo sapiens, UniProt P41180)
# Sequence (P41180 20-1078): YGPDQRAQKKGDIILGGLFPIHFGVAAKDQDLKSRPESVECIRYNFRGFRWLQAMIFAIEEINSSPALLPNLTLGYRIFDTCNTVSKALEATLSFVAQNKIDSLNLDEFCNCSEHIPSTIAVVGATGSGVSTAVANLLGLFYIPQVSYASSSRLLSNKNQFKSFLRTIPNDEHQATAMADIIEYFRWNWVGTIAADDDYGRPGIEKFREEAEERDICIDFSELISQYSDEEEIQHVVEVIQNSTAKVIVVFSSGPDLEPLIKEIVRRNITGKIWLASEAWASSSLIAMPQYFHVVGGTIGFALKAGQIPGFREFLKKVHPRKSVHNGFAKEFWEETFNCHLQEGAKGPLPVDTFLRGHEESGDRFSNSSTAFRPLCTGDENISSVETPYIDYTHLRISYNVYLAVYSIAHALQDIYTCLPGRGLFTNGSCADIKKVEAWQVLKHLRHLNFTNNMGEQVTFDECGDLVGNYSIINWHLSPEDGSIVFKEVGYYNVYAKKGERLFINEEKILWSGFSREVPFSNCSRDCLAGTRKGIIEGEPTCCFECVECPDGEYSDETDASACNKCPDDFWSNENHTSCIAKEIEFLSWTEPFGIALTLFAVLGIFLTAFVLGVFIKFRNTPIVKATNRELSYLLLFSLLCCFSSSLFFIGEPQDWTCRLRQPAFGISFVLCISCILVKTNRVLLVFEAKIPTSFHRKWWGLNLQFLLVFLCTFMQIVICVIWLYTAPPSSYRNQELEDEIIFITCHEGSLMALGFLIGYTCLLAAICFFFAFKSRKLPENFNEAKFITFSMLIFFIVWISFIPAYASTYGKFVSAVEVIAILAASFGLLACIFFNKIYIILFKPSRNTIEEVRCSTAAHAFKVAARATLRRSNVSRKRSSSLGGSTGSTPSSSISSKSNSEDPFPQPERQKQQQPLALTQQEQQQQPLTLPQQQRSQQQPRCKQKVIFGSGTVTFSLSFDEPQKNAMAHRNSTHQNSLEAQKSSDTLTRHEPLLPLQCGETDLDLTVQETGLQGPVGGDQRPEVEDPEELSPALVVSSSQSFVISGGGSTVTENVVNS
# ASSAY_NAME: In-vitro assay of calcimimetics through modulation of calcium sensing receptor (intracellular calcium increase, FLIPR)
# MEASUREMENT_SETUP: stably transfected HEK293 cells expressing hCaSR; Fluo4NW dye; 0.3 mM CaCl2; 8-point assay; read-out: EC50 in range
pEC50: −log10 of the molar value. Counter-ions that a name gives are not always drawn.
MEASURED_PARAMETER: pEC50

CCOc1cccc([C@@H](C)NCc2cc(-c3ccc(Cl)c(C(=O)O)c3)c3ccccc3c2)c1 [Example 100, hydrochloride]; 7.30 to 7.70
COc1cccc([C@@H](C)NC(C)c2cc(-c3cc(F)cc(N4CCOCC4)c3)c3ccccc3c2)c1 (stereo partly drawn) [Example 161, hydrochloride]; > 7.70
COc1cccc([C@@H](C)NC(C)c2cc(-c3ccc(C(F)(F)F)cc3)c3ccccc3c2)c1 (stereo partly drawn) [Example 6, hydrochloride]; > 7.70
COc1cccc([C@@H](C)NC(C)c2cc(-c3ccc(CCC(=O)O)c(F)c3)c3ccccc3c2)c1 (stereo partly drawn) [Example 136, hydrochloride]; 7.30 to 7.70
COC(=O)c1cc(-c2cc(CN[C@H](C)c3cccc(OC)c3)cc3ccccc23)ccc1C [Example 155, hydrochloride]; > 7.70
COc1cccc([C@@H](C)NC(C)c2cc(-c3ccc(S(C)(=O)=O)cc3)c3ccccc3c2)c1 (stereo partly drawn) [Example 17, hydrochloride]; 6.40 to 7.30
COc1cc([C@@H](C)NCc2cc(-c3ccc(C(F)(F)F)cc3)c3ccccc3c2)ccc1F [Example 2, hydrochloride]; 7.30 to 7.70
CC(N[C@H](C)c1cccc(F)c1)c1cc(-c2ccc(C(F)(F)F)cc2)c2ccccc2c1 (stereo partly drawn) [Example 13, hydrochloride]; > 7.70
CC(N[C@H](C)c1cccc(Cl)c1)c1cc(-c2ccc(OC(F)(F)F)cc2)c2ccccc2c1 (stereo partly drawn) [Example 20, hydrochloride]; > 7.70
CC(N[C@H](C)c1cccc(Cl)c1)c1cc(-c2cccc(C(F)(F)F)c2)c2ccccc2c1 (stereo partly drawn) [Example 14, hydrochloride]; > 7.70
COc1cccc([C@@H](C)NC(C)c2cc(-c3ccc(C(F)(F)F)cc3)c3ccc(F)cc3c2)c1 (stereo partly drawn) [Example 162, hydrochloride]; > 7.70
CCC(N[C@H](C)c1cccc(Cl)c1)c1cc(-c2ccc(F)c(CCC(=O)O)c2)c2ccccc2c1 (stereo partly drawn) [Example 152, hydrochloride]; 6.40 to 7.30
CCOc1cccc([C@@H](C)NC(CC)c2cc(-c3ccc(F)c(CCC(=O)O)c3)c3ccccc3c2)c1 (stereo partly drawn) [Example 141, hydrochloride]; 7.30 to 7.70
CC(N[C@H](C)c1cccc(Cl)c1)c1cc(-c2ccc(F)cc2)c2ccccc2c1 (stereo partly drawn) [Example 16, hydrochloride]; > 7.70
COC(=O)c1cc(-c2cc(CN[C@H](C)c3cccc(OC)c3)cc3ccccc23)ccc1F [Example 45, hydrochloride]; > 7.70
COc1cccc([C@@H](C)NC(C)c2cc(-c3ccc(Cl)c(C(=O)O)c3)c3ccccc3c2)c1 (stereo partly drawn) [Example 133, hydrochloride]; > 7.70
Cc1ccc(-c2cc(C(C)N[C@H](C)c3cccc(Cl)c3)cc3ccccc23)cc1C(=O)O (stereo partly drawn) [Example 117, hydrochloride]; 6.40 to 7.30
COc1cccc([C@@H](C)NC(C)c2cc(-c3cc(F)cc(CCC(=O)O)c3)c3cc(F)ccc3c2)c1 (stereo partly drawn) [Example 147, hydrochloride]; 6.40 to 7.30
CCOc1cccc([C@@H](C)NC(C)c2cc(-c3cc(F)cc(CCC(=O)O)c3)c3ccccc3c2)c1 (stereo partly drawn) [Example 158, hydrochloride]; > 7.70
Cc1ccc(-c2cc(CN[C@H](C)c3cccc(Cl)c3)cc3ccccc23)cc1C(=O)O [Example 94, hydrochloride]; 6.40 to 7.30
COc1cccc([C@@H](C)NCc2cc(-c3ccc(F)c(CCC(=O)O)c3)c3ccccc3c2)c1 [Example 110, hydrochloride]; > 7.70
COc1cccc([C@@H](C)NC(C)c2cc(-c3ccc(C(=O)O)cc3)c3ccccc3c2)c1 (stereo partly drawn) [Example 119, hydrochloride]; 6.40 to 7.30
COc1cccc([C@@H](C)NC(C)c2cc(-c3ccc(F)c(CCC(=O)O)c3)c3ccccc3c2)c1 (stereo partly drawn) [Example 122, hydrochloride]; > 7.70
COc1cc(F)cc(C(C)NC(C)c2cc(-c3ccc(C(F)(F)F)cc3)c3ccccc3c2)c1 (single isomer, unassigned) [Example 163a, hydrochloride]; 6.40 to 7.30
C[C@@H](NCc1cc(-c2ccc(C(=O)O)cc2)c2ccccc2c1)c1cccc2ccccc12 [Example 106, hydrochloride]; 6.40 to 7.30
COc1cccc([C@@H](C)NCc2cc(-c3ccc(C)c(C(=O)O)c3)c3ccccc3c2)c1 [Example 90, hydrochloride]; > 7.70
COc1cccc([C@@H](C)NC(C)c2cc(-c3ccc(OC)c(F)c3)c3ccccc3c2)c1 (stereo partly drawn) [Example 7, hydrochloride]; > 7.70

====

# TESTED_SYSTEM: Calcium sensing receptor (hCaSR) (Homo sapiens)
# ASSAY_NAME: In-vitro assay of calcimimetics through modulation of calcium sensing receptor (intracellular calcium increase, FLIPR)
# MEASUREMENT_SETUP: stably transfected HEK293 cells expressing hCaSR; Fluo4NW dye; 0.3 mM CaCl2; 8-point assay; read-out: EC50 in range
Where a name gives a salt, the structure may show the parent alone.
The following compounds are listed with their measured EC50 values.
MEASURED_PARAMETER: EC50

COc1cc(C(=O)O)cc(-c2cc(C(C)N[C@H](C)c3cccc(OC)c3)cc3ccccc23)c1 (stereo partly shown) [Example 150, hydrochloride]; 50 to 400 nM
COc1cccc([C@@H](C)NC(C)c2cc(-c3cc(F)cc(C(=O)O)c3)c3ccccc3c2)c1 (stereo partly shown) [Example 118, hydrochloride]; < 20 nM
COc1cc([C@@H](C)NC(C)c2cc(-c3ccc(C)c(C(=O)O)c3)c3ccccc3c2)ccc1F (stereo partly shown) [Example 115, hydrochloride]; 50 to 400 nM
CCC(N[C@H](C)c1cccc(OC)c1)c1cc(-c2ccc(C(F)(F)F)cc2)c2ccccc2c1 (single isomer, unassigned) [Example 18a, hydrochloride]; < 20 nM
CC(N[C@H](C)c1cccc(Cl)c1)c1cc(-c2ccc(C(F)(F)F)cc2)c2ccccc2c1 (stereo partly shown) [Example 10, hydrochloride]; < 20 nM
COc1cccc([C@@H](C)NC(C)c2cc(-c3ccc(F)cc3)c3ccccc3c2)c1 (mixture of isomers) [Example 15, hydrochloride]; < 20 nM
CC(N[C@H](C)c1cccc(Cl)c1)c1cc(-c2ccc(C3(F)COC3)cc2)c2ccccc2c1 (mixture of isomers) [Example 23, hydrochloride]; < 20 nM
COc1cccc([C@@H](C)NC(C)c2cc(-c3ccc(F)c(C(=O)O)c3)c3ccccc3c2)c1 (stereo partly shown) [Example 123, hydrochloride]; < 20 nM
COc1cccc([C@@H](C)NCc2cc(-c3cccc(C(=O)O)c3)c3ccccc3c2)c1 [Example 108, hydrochloride]; < 20 nM
COc1cccc([C@@H](C)NC(C)c2cc(-c3cc(F)cc(CCC(=O)O)c3)c3ccccc3c2)c1 (stereo partly shown) [Example 134, hydrochloride]; < 20 nM
COc1cccc([C@@H](C)NCc2cc(-c3ccc(C(C)C)c(C(=O)O)c3)c3ccccc3c2)c1 [Example 105, hydrochloride]; 50 to 400 nM
COc1cccc([C@@H](C)NCc2cc(-c3cccc(C(=O)O)c3C)c3ccccc3c2)c1 [Example 101, hydrochloride]; 50 to 400 nM
CCOc1cccc([C@@H](C)NC(C)c2cc(-c3ccc(F)c(C(=O)O)c3)c3ccccc3c2)c1 (stereo partly shown) [Example 126, hydrochloride]; < 20 nM
